Measured values drawn from paper PMC10513951 for this set.

Target: dihydroorotate dehydrogenase (DHODH) (Homo sapiens, UniProt Q02127)
Construct: N-terminal His-tagged DHODH/ΔTM; Met29–Arg395
Sequence (Q02127 29-395): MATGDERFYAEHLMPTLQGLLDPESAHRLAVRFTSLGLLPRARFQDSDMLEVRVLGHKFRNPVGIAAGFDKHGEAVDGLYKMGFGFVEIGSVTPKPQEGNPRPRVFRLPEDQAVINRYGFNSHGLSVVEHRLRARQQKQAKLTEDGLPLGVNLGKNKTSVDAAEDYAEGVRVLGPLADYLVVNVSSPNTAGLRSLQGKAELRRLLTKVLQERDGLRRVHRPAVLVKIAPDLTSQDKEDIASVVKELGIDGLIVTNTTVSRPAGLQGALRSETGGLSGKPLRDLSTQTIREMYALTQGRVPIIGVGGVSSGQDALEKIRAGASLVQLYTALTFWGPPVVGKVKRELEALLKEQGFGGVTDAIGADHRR
Test: DCIP reduction enzyme assay with recombinant human DHODH
parameter-measured: IC50 (nM)
State the answer as a number, implicitly in nM.

| compound | IC50 (nM) |
| --- | --- |
| Cc1cc(=O)oc2c1ccc1oc(C(=O)c3ccccc3)c(-c3ccccc3)c12 | 1520 |

Now for the compound whose IC50 we want.
# input Item: Cc1cc(=O)oc2c1ccc1oc(C(O)c3ccccc3)c(-c3ccccc3)c12 (centres unmarked) Test system: dihydroorotate dehydrogenase (DHODH) (Homo sapiens, UniProt Q02127) Read-out: IC50 Value: ?
# output 3.8
